Measurement Protocol: protein stability index of a GFP-peptide fusion (GPS, HEK-293T) (PSI 1-6); higher = more stable;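 note: 24-mer peptide tiles fused after GFP, lentivirally expressed, FACS-sorted into six equal bins by GFP/DsRed ratio, decoded by Illumina sequencing, PSI is the read-weighted mean bin number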
Condition Info: treatment: DMSO; c terminus: a fixed tail appended
Catalogue of protein stability index readings, one per entry.
Answer with a bare number; do not write a unit.

Use these answered entries as a reference point.
Monomer Sequence: CKAFSTCVSHLIIVTVHYGCASFI [OR10K2]
protein stability index: 2.88

Monomer Sequence: AKECMLQEENKSLREENKALREEN [CBY2]
protein stability index: 5.55

Monomer Sequence: DARYKLHHHLHKTLREITDQEHNV [TEKT4]
protein stability index: 3.77

Any idea what its protein stability index is? The sequence is SVNWRTGSFHGPGHISLRRENSSD [DLC1] 3.78

Any idea what its protein stability index is? The sequence is KRSQSMKSYPSSELRNMCDEHIAS [CLCN6] 4.56

Any idea what its protein stability index is? The sequence is AVSCPYLPSNLLKKFRSSTSSSLG [KCNA4] 2.54

Any idea what its protein stability index is? The sequence is NCCLTLCNFSIPEELEFQYRRVNE [ZER1] 2.55

Any idea what its protein stability index is? The sequence is LLFPEEEATNGREGLLRFSSWPFS [AUP1] 2.58
